Test system: SN12C renal
Experiment: NCI tumour cell line growth inhibition, 48 h; in the data active = GI50 below about 0.43 µM; inactive = the rest
API: response.call in label 1 (active), label 0 (inactive)

• COC(=O)C(C(=O)OC)C(Br)C(Br)C(Br)c1ccccc1 (stereo unspecified) = label 0
• Cc1[nH]c2cc(F)ccc2c1-c1nc2c3cccnc3c3ncccc3c2[nH]1 = label 1
• COc1ccc(C(=O)c2sc3nc(-c4cccs4)ccc3c2N)cc1OC = label 0
• CC1SC2(CCCCC2)N(NC(=O)c2[nH]c3ccc(Br)cc3c2-c2ccccc2)C1=O (stereo unspecified) = label 0
• CC1(C)Cc2c(Br)c(Br)c(Br)c(OCC(O)CN3CCN(c4ccccn4)CC3)c2O1 (stereo unspecified) = label 0

We next turn to a different compound, shown below.
IN: Which result was noted for this compound in the test: "COc1cc2c(c(OC)c1OC)-c1ccc(N=NC(N)=S)c(=O)cc1[C@@H](NC(C)=O)CC2"
OUT: label 0
